Assay system: human HPK1 protein (Homo sapiens, UniProt Q92918)
Construct: recombinant human HPK1 protein (a.a. 1-346) was expressed in Sf9 insect cells; GST (N); purchased Signalchem M23-11G; host or cells: Sf9 insect cells (baculovirus)
Assay procedure: Human HPK1 protein TR-FRET assay
Type: biochemical
Applied conditions: 1 mM ATP, Table 19
pIC50: −log10 of the molar value.
// pIC50 lookup, one value per entry
Endpoint name: pIC50

{"Compound": "Cc1cc2c(Oc3ccc4c(c3)[C@H](C)N(C(=O)Nc3cnc(OC5CCN(C)CC5O)c(C(F)(F)F)c3)CC4)ccnc2[nH]1 (stereo in doubt) [VI-9]", "Reported": "5.30 to 6.30"}
{"Compound": "CCN1CCN(Cc2ccc(NC(=O)N3CCc4ccc(Oc5ncnn6cc(-c7cnn(C)c7)cc56)cc4C3)cc2C(F)(F)F)CC1 [II-2]", "Reported": "> 6.30"}
{"Compound": "CC1CN(C(=O)Nc2cnc(OC3CCN(C)CC3)c(C(F)(F)F)c2)Cc2cc(Oc3ccnc4[nH]ncc34)cnc21 (stereo not drawn) [VII-11]", "Reported": "5.30 to 6.30"}
{"Compound": "CCN1CCN(Cc2ccc(NC(=O)N3CCc4cc(F)c(Oc5ccnc6[nH]c(C)cc56)cc4C3C)cc2C(F)(F)F)CC1 (single isomer, unassigned) [IV-25]", "Reported": "> 6.30"}
{"Compound": "Cc1cc2c(Oc3cnc4c(c3)CN(C(=O)Nc3cnc(OC5CCN(C)CC5)c(C(F)(F)F)c3)CC4C)ncnc2[nH]1 (stereo not drawn) [VII-14]", "Reported": "> 6.30"}
{"Compound": "CCN1CCN(Cc2ccc(NC(=O)N3CCc4cc(F)c(Oc5ncnn6cccc56)cc4C3C)cc2C(F)(F)F)CC1 (stereo not drawn) [IV-33]", "Reported": "> 6.30"}
{"Compound": "CCN1CCN(Cc2ccc(NC(=O)N3CCc4ccc(Oc5ccnc6[nH]c(=O)ccc56)cc4C3)cc2C(F)(F)F)CC1 [II-12]", "Reported": "> 6.30"}
{"Compound": "CCN1CCN(Cc2ccc(NC(=O)N3CCc4cc(F)c(Oc5ccnn6cccc56)cc4C3C)cc2C(F)(F)F)CC1 (stereo not drawn) [IV-32]", "Reported": "< 5.00"}
{"Compound": "CCN1CCN(Cc2ccc(NC(=O)N3CCc4ccc(Oc5ccnc6[nH]ccc56)cc4[C@@H]3C)cc2C(F)F)CC1 [V-4]", "Reported": "> 6.30"}
{"Compound": "Cc1cc2c(Oc3ccc4c(c3)[C@H](C)N(C(=O)Nc3cnc5c(N6CCN(C)CC6)cccc5c3)CC4)ccnc2[nH]1 [X-7]", "Reported": "> 6.30"}
{"Compound": "Cc1cc2c(Oc3ccc4c(c3)[C@H](C)N(C(=O)Nc3cnc(OCCn5ccnc5)c(C(F)(F)F)c3)CC4)ccnc2[nH]1 [VI-17]", "Reported": "5.30 to 6.30"}
{"Compound": "CCN1CCN(Cc2ccc(NC(=O)N3CCc4ccc(Oc5ccnn6cc(Br)cc56)cc4C3)cc2C(F)(F)F)CC1 [II-24]", "Reported": "> 6.30"}
{"Compound": "CCN1CCN(Cc2ccc(NC(=O)N3CCc4ccc(Oc5ncnc6[nH]c(C)cc56)cc4[C@@H]3C)cc2C(F)(F)F)CC1 [V-28]", "Reported": "> 6.30"}
{"Compound": "CCN1CCN(Cc2ccc(NC(=O)N3CCc4ccc(Oc5ccnc6[nH]ccc56)c(F)c4C3)cc2C(F)(F)F)CC1 [III-3]", "Reported": "> 6.30"}
{"Compound": "Cc1cc2c(Oc3ccc4c(c3)[C@H](C)N(C(=O)Nc3cnc(OC5CCN(C)CC5F)c(C(F)(F)F)c3)CC4)ccnc2[nH]1 (stereo in doubt) [VI-11]", "Reported": "5.30 to 6.30"}
{"Compound": "CCN1CCN(Cc2ccc(NC(=O)N3CCc4c(F)cc(Oc5ccnc6[nH]ccc56)cc4C3C)cc2C(F)(F)F)CC1 (stereo not drawn) [IV-16]", "Reported": "5.30 to 6.30"}
{"Compound": "CCN1CCN(Cc2ccc(NC(=O)N3CCc4c(C#N)cc(Oc5ccnc6[nH]ccc56)cc4C3C)cc2C(F)(F)F)CC1 (stereo not drawn) [IV-11]", "Reported": "5.30 to 6.30"}
{"Compound": "C[C@H]1c2cc(Oc3ccnc4[nH]ccc34)ccc2CCN1C(=O)Nc1ccc(CN2CCN(CCO)CC2)c(C(F)(F)F)c1 [V-19]", "Reported": "> 6.30"}
{"Compound": "CCN1CCN(Cc2ccc(NC(=O)N3CCc4ccc(Oc5ccnc6[nH]ccc56)cc4[C@@H]3C)cc2C(F)(F)F)CC1 [compound 6]", "Reported": "> 6.30"}
{"Compound": "CCN1CCN(Cc2ccc(NC(=O)N3CCc4ccc(Oc5ccnn6cccc56)cc4[C@@H]3C)cc2C(F)(F)F)CC1 [V-6]", "Reported": "> 6.30"}
{"Compound": "C[C@H]1c2cc(Oc3ccnc4[nH]ccc34)ccc2CCN1C(=O)Nc1ccc(OC2CCN(CCO)CC2)c(C(F)(F)F)c1 [V-17]", "Reported": "> 6.30"}
{"Compound": "CCN1CCN(Cc2ccc(NC(=O)N3Cc4cc(Oc5ccnc6[nH]ccc56)ccc4C(C)C3)cc2C(F)(F)F)CC1 (stereo not drawn) [IV-3]", "Reported": "> 6.30"}
{"Compound": "CCN1CCN(Cc2ccc(NC(=O)N3CCc4cc(F)c(Oc5ccnc6[nH]ccc56)cc4C3C)cc2C(F)(F)F)CC1 (single isomer, unassigned) [IV-6]", "Reported": "> 6.30"}
{"Compound": "CCCC1CN(C(=O)Nc2ccc(CN3CCN(CC)CC3)c(C(F)(F)F)c2)Cc2cc(Oc3ccnc4[nH]c(C)cc34)ccc21 (stereo not drawn) [IV-37]", "Reported": "> 6.30"}
{"Compound": "CCN1CCN(Cc2ccc(NC(=O)N3CCc4nc(C)c(Oc5ccnc6[nH]ccc56)cc4C3C)cc2C(F)(F)F)CC1 (stereo not drawn) [IV-10]", "Reported": "5.30 to 6.30"}
{"Compound": "CCN1CCN(Cc2ccc(NC(=O)N3CCc4ccc(Oc5ccnn6cc(F)cc56)cc4C3)cc2C(F)(F)F)CC1 [II-22]", "Reported": "> 6.30"}
{"Compound": "CCN1CCN(Cc2ccc(NC(=O)N3Cc4cc(Oc5ccnc6[nH]ncc56)cnc4C(C)C3)cc2C(F)(F)F)CC1 (stereo not drawn) [VII-17]", "Reported": "> 6.30"}

* * *

Assay system: human HPK1 protein (Homo sapiens)
Construct: recombinant human HPK1 protein (a.a. 1-346) was expressed in Sf9 insect cells; GST (N); purchased Signalchem M23-11G; host or cells: Sf9 insect cells (baculovirus)
Sequence (Q92918 1-346): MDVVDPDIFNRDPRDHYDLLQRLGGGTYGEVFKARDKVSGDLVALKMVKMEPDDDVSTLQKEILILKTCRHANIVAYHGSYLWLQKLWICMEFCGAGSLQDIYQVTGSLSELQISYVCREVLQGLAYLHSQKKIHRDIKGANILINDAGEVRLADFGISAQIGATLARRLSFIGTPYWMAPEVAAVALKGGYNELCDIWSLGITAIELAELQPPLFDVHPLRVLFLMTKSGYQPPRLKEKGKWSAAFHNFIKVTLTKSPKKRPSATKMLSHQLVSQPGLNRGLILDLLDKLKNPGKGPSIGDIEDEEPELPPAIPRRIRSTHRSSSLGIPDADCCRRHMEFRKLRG
Assay procedure: Human HPK1 protein TR-FRET assay
Format: biochemical
Applied conditions: 1 mM ATP, Table 20
We begin with a simple list: items and their reported IC50.

{"Molecule": "CN1CCN(Cc2ncc(NC(=O)N3CCc4ccc(Nc5c(F)cnc6[nH]c(-c7cnn(C)c7)cc56)cc4C3)cc2C(F)(F)F)CC1", "IC50": "< 500 nM"}
{"Molecule": "CN1CCC(Oc2ncc(NC(=O)N3CCc4ccc(Oc5c(F)cnc6[nH]c(-c7cnn(C)c7)cc56)cc4C3)cc2C(F)(F)F)CC1", "IC50": "< 500 nM"}
{"Molecule": "CC[C@@H]1CN(C(=O)Nc2ccc(CN3CCN(CCO)CC3)c(C(F)(F)F)c2)Cc2cc(Oc3ccnc4[nH]c(C5CC5)cc34)cnc21", "IC50": "< 500 nM"}
{"Molecule": "CCN1CCN(Cc2ccc(NC(=O)N3Cc4cc(Oc5ccnc(NCCO)c5)cnc4C(C)C3)cc2C(F)(F)F)CC1 (single isomer, unassigned)", "IC50": "500 to 5000 nM"}
{"Molecule": "CC[C@H]1CN(C(=O)Nc2ccc(CN3CCNCC3)c(C(F)(F)F)c2)Cc2cc(Oc3ncnn4cc(C(=O)N(C)C)cc34)cnc21", "IC50": "< 500 nM"}
{"Molecule": "CC[C@@H]1CN(C(=O)Nc2ccc(CN3CCN(CC)CC3)c(C(F)(F)F)c2)Cc2cc(Oc3ccnc4[nH]c(C5CC5)cc34)cnc21", "IC50": "< 500 nM"}
{"Molecule": "CCN1CCN(Cc2ccc(NC(=O)N3CCc4ccc(Oc5c(F)cnc6[nH]c(-c7cnn(C)c7)cc56)cc4C3)cc2C(F)(F)F)CC1", "IC50": "< 500 nM"}
{"Molecule": "CC[C@@H]1CN(C(=O)Nc2ccc(CN3CCN(C)CC3)c(C(F)(F)F)c2)Cc2cc(Oc3ccnn4cc(C(=O)N(C)C)nc34)cnc21", "IC50": "5000 to 10000 nM"}
{"Molecule": "O=C(Nc1ccc(CN2CCNCC2)c(C(F)(F)F)c1)N1CCc2ccc(Oc3ccnc4[nH]c(C5(O)CC5)cc34)cc2C1", "IC50": "< 500 nM"}
{"Molecule": "CC[C@H]1CN(C(=O)Nc2ccc(CN3CCN(C)CC3)c(C(F)(F)F)c2)Cc2cc(Oc3ccnc4[nH]c(C(C)C)cc34)cnc21", "IC50": "< 500 nM"}
{"Molecule": "CC[C@@H]1CN(C(=O)Nc2ccc(CN3CCN(CCO)CC3)c(C(F)F)c2)Cc2cc(Oc3ccnc4[nH]c(C#N)cc34)ccc21", "IC50": "< 500 nM"}
